# Experimental protocol: Solubility of fosfluconazole derivatives in pharmaceutical solvents (Table 2)
# Format: physicochemical
# Condition: aqueous with cosolvent or surfactant or cyclodextrin, thermodynamic from solid; H2O/Kleptose HPB (60/40), 25° C.
Entries annotated with measured solubility at 24 h

Sample answers from the record:
CCOP(=O)(O[C@H]1CC[C@@]2(C)C(=CC[C@H]3[C@@H]4CC[C@H]([C@H](C)CCCC(C)C)[C@@]4(C)CC[C@@H]32)C1)OC(Cn1cncn1)(Cn1cncn1)c1ccc(F)cc1F (stereo partly drawn)    500 µg/mL
CCCCCCCCCC(=O)OCCOP(=O)([O-])OC(Cn1cncn1)(Cn1cncn1)c1ccc(F)cc1F.[Na+]    > 10000 µg/mL

For the next question, use this compound.
Lab note: CCCCCCCCCOP(=O)([O-])OC(Cn1cncn1)(Cn1cncn1)c1ccc(F)cc1F.[Na+] gave solubility at 24 h of > 10000 µg/mL

* * *

Entries and their weight percentage that remained in solution values follow.
# Experimental protocol: Chemical stability in pharmaceutical solvents (weight % remaining in solution, LCMS)
# Type: physicochemical
# Condition: H2O (pH = 7), 7 days
# Experimental: Table 4 provides the chemical stability data in some pharmaceutical solvents, expressed as the weight percentage (% w/w) of the final fosfluconazole derivative produced and characterized in example 1 that remained in solution after a certain period of time. The test was carried out twice, and the remaining weight % was determined by Liquid Chromatography-Mass Spectrometry (LCMS). […]
Hey, just the number and the unit after it is fine.

These solved cases illustrate the format of a correct answer.
CCCCCCCCCC(=O)OCC(COP(=O)([O-])OC(Cn1cncn1)(Cn1cncn1)c1ccc(F)cc1F)OC(=O)CCCCCCCCC.[Na+] (centres unmarked)    95.6 % w/w
CCCCCCCCCOP(=O)([O-])OC(Cn1cncn1)(Cn1cncn1)c1ccc(F)cc1F.[Na+]    99.2 % w/w
CCCCCCCCCC(=O)OCCOP(=O)([O-])OC(Cn1cncn1)(Cn1cncn1)c1ccc(F)cc1F.[Na+]    97.8 % w/w
C[N+](C)(C)CCOP(=O)([O-])OC(Cn1cncn1)(Cn1cncn1)c1ccc(F)cc1F    99.6 % w/w

Attention now turns to another entry.
CCCCCCCCCOCCOP(=O)([O-])OC(Cn1cncn1)(Cn1cncn1)c1ccc(F)cc1F.[Na+] yielded weight percentage that remained in solution of 94.8 % w/w

* * *

compounds and their reported weight percentage that remained in solution
# Experimental protocol: Chemical stability in pharmaceutical solvents (weight % remaining in solution, LCMS)
# Format: physicochemical
# Condition: H2O/Kleptose HPB (60/40), 4 hours
A number alone suffices; assume % w/w.

For orientation, consider the following solved cases.
CCCCCCCCCOP(=O)([O-])OC(Cn1cncn1)(Cn1cncn1)c1ccc(F)cc1F.[Na+]    99.5
CCCCCCCCCC(=O)OCC(COP(=O)([O-])OC(Cn1cncn1)(Cn1cncn1)c1ccc(F)cc1F)OC(=O)CCCCCCCCC.[Na+] (centres unmarked)    95.1
C[N+](C)(C)CCOP(=O)([O-])OC(Cn1cncn1)(Cn1cncn1)c1ccc(F)cc1F    99.3

weight percentage that remained in solution reported for this compound CCCCCCCCCOCCOP(=O)([O-])OC(Cn1cncn1)(Cn1cncn1)c1ccc(F)cc1F.[Na+] : 95.0

In plain terms, CCCCCCCCCC(=O)OCCOP(=O)([O-])OC(Cn1cncn1)(Cn1cncn1)c1ccc(F)cc1F.[Na+] has a documented weight percentage that remained in solution of 98.0
